test.target: human Nav1.7 channels stably expressed in HEK 293 cells (Homo sapiens, UniProt Q15858)
Construct: expressed in transfected cells
Sequence (Q15858 whole entry): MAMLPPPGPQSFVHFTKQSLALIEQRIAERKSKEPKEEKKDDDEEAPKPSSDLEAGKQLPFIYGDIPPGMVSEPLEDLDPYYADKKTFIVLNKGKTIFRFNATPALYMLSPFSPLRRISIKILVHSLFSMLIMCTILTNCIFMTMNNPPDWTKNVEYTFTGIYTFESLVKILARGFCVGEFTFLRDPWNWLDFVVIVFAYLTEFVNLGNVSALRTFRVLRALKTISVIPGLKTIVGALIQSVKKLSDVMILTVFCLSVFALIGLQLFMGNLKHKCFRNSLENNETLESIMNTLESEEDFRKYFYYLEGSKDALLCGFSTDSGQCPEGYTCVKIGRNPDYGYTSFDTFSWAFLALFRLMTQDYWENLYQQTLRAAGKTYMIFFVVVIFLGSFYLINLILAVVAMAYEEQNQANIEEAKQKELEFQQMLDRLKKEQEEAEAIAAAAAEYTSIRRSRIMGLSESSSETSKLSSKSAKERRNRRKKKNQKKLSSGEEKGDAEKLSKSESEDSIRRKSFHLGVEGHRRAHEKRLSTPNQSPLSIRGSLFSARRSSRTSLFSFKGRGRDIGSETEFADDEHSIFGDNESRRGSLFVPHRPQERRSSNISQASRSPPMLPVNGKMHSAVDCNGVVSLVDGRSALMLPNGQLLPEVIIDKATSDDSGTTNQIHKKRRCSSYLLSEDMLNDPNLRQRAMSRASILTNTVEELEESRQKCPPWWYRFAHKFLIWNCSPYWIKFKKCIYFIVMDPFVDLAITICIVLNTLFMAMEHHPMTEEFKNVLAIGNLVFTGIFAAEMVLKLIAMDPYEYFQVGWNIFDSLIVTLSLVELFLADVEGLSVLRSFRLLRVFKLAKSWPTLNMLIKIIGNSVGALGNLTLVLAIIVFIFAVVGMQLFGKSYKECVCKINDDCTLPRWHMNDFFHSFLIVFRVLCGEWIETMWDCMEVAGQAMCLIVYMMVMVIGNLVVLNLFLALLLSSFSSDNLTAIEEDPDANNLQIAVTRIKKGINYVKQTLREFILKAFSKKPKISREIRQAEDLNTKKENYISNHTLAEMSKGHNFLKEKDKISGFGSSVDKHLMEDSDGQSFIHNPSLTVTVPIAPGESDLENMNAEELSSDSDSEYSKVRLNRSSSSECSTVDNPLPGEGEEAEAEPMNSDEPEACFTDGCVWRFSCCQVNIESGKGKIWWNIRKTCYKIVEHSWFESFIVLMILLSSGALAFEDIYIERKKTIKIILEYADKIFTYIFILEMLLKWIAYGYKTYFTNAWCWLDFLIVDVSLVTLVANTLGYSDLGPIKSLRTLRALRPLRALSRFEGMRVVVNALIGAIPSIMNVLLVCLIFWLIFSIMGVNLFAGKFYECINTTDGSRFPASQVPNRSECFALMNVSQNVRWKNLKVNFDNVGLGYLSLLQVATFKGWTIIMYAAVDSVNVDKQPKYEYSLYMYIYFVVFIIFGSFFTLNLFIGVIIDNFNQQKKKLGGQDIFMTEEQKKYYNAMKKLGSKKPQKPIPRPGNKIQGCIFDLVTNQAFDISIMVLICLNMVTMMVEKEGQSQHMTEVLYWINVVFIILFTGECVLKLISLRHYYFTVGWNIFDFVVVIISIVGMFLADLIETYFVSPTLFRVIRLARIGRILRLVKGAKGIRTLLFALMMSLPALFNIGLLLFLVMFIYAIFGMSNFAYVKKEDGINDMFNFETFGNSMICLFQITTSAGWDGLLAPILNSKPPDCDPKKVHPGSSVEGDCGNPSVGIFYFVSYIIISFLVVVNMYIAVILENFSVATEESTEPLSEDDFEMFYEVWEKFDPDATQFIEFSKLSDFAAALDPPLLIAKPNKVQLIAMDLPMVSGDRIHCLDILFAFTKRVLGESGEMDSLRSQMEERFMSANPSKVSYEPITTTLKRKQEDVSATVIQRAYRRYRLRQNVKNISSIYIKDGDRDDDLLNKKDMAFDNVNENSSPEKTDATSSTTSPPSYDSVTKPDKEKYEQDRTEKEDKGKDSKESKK
experiment: PatchXpress 7000 automated patch-clamp, sodium current
Type: cell-based
assay.context: 22° C., read-out: potency for the Nav 1.7 sodium ion channel (as measured by PatchXpress)
pIC50: −log10 of the molar value.
Would you please tag the item y when its pIC50 is 7 or above, and n when it is below?

compound="O=C(c1ccccc1)N1CCC2(CC1)CC(n1c(=O)oc3cc(S(=O)(=O)Nc4ncns4)c(F)cc31)c1cc(F)ccc1O2 (stereo not drawn)" label=n

# check: pIC50 of O=c1oc2cc(S(=O)(=O)Nc3ncns3)c(F)cc2n1Cc1cccc2c1CC(NCc1ccccc1)CC2 (racemic) is greater than or equal to 7 y

Given the entry CC(c1cccc2c1CN(S(C)(=O)=O)CC2)n1c(=O)oc2cc(S(=O)(=O)Nc3ncns3)c(Cl)cc21 (racemic) , answer whether its pIC50 meets or surpasses 7. n

Hi team, for C[C@@H](c1ccccc1CCCN)n1c(=O)oc2cc(S(=O)(=O)Nc3ncns3)c(F)cc21 , is the recorded pIC50 at or above 7? n

Quick check: does C[C@H](c1cccc2c1CC(N)CC2)n1c(=O)oc2cc(S(=O)(=O)Nc3ncns3)c(F)cc21 (single isomer, unassigned) have pIC50 greater than or equal to 7? y

Kindly determine if pIC50 recorded for C[C@H](c1cccc2c1CNCC2)n1c(=O)oc2cc(S(=O)(=O)Nc3nccs3)ccc21 is above or exactly 7. y
